tested on: NCI-H522 lung; assay: NCI tumour cell line growth inhibition, 48 h
Reported TGI values follow for various compounds
Report the value in µM with no unit label.

# get_value(readout='TGI', item= COc1cccc(C(=O)Nc2ccc(CN3CCc4nc5cc(OC)c(OC)cc5cc43)cc2)c1 )
18.3

Now consider C=C1CC(Cn2ccc(=O)[nH]c2=O)(c2ccc(-c3ccccc3)cc2)OC1=O (stereo not given) and answer again.
2.39

====

tested on: SN12C renal; experiment: NCI tumour cell line growth inhibition, 48 h
test.readout: GI50

Solved entries (count: 5):
# get_value(readout='GI50', item= Cc1c(C)c2c(c(C)c1NC(=O)/C=C\C(=O)O)CCC(C)(CCCC(C)CCCC(C)CCCC(C)C)O2 (stereo unspecified) )
1.73 µM

Now consider [C-]#[O+].[Cl][Sn]([Cl])[Cl].[Cl][Sn]([Cl])[Cl].[Pt].c1ccc([PH+](c2ccccc2)c2ccccc2)cc1.c1ccc([PH+](c2ccccc2)c2ccccc2)cc1 and answer again.
56.6 µM

Now consider Cc1cc(N2CCN(C)CC2)nc(NCc2cc(Nc3ccnc4cc(Cl)ccc34)ccc2F)n1 and answer again.
2.3 µM

Now consider O=S(=O)(Nc1cc(Br)c(O)c2ccccc12)c1ccc(F)cc1 and answer again.
2.04 µM

Now consider CCCCN(CCCC)c1ccc(C(=N)c2ccc(N(C)C)cc2)cc1 and answer again.
1.19 µM

Further cases:
# get_value(readout='GI50', item= CN1CCN(c2ccc(-c3ccc4ncc(C#N)c(Nc5ccc(F)c(Cl)c5)c4c3)cc2)CC1 )
3.04 µM

Now consider COc1cc(/C=N/Nc2ncnc3c2cnn3C(C)C)ccc1O and answer again.
8.27 µM

Now consider O=C(Cn1c(=O)c(-c2ccccc2)nc2ccccc21)c1ccc(Cl)cc1 and answer again.
48.6 µM

Now consider C=CCn1c(=O)c2cnc(Nc3ccc(N4CCN(C)CC4)cc3)nc2n1-c1ccc2c(n1)[C@@](O)(CC)CC2 and answer again.
0.507 µM

Now consider CN(Cc1cnc(N)nc1N)c1ccc(C(=O)O)cc1 and answer again.
> 100 µM

Now consider COc1cc(N2CCN(C(C)C)CC2)ccc1Nc1nc(Nc2cccc3ncccc23)c2cc[nH]c2n1 and answer again.
15.7 µM

====

Reported TGI values follow for various compounds
test system: HL-60(TB) leukemia; test: NCI tumour cell line growth inhibition, 48 h

# get_value(readout='TGI', item= CCCN(CCCN)/[N+]([O-])=N\O )
> 100 µM

Now consider CCCCCCCC(=O)OC[C@@H](C[As](=O)(O)O)OC(=O)CCCCCCC and answer again.
21.7 µM

Now consider Cc1c(/C=N/NC(=S)Nc2cccc(Cl)c2)c(=O)n(-c2ccccc2)n1C and answer again.
> 100 µM

Now consider CCOc1cc(-c2nc3ccccn3c2/N=C/c2cc([N+](=O)[O-])cc([N+](=O)[O-])c2O)ccc1O and answer again.
> 100 µM

Pending compound:
# get_value(readout='TGI', item= C[C@@H](C1CCC2C3C(=CC(=O)[C@@]21C)[C@H](C)[C@]1(CCC(=O)O1)C1OC31)[C@H]1C[C@]2(C)O[C@@](C)(O1)OC2(C)C (stereo not given in full) )
> 100 µM

====

Reported TGI values follow for various compounds
test system: OVCAR-4 ovarian; test: NCI tumour cell line growth inhibition, 48 h

Solved entries (count: 3):
# get_value(readout='TGI', item= NC(N)=NS(=O)(=O)c1ccc(Nc2c3ccccc3nc3c(C(=O)N4CCN(CCO)CC4)cccc23)cc1 )
> 100 µM

Now consider C=C(C)[C@@H]1CC[C@]2(C)CC[C@]3(C)[C@H](CC[C@@H]4[C@@]5(C)CC[C@H](OC(=O)c6ccccc6)C(C)(C)[C@@H]5CC[C@]43C)[C@@H]12 and answer again.
> 100 µM

Now consider COC(=O)CCC1(C)C2CCC1(C)/C(=N/O)C2 (stereo not drawn) and answer again.
> 100 µM

Further cases:
# get_value(readout='TGI', item= CCCCCCCC(=O)OC[n+]1ccc(-c2c(COC(=O)NC(C)C)c(COC(=O)NC(C)C)c3n2CCC3)cc1 )
> 100 µM

Now consider C#CCn1c(=O)ccn(/C(=C\C(=O)OCC)C(=O)OCC)c1=O and answer again.
7.3 µM

Now consider O=C1NCN(c2ccccc2)C12CCN(CCc1ccc3[nH]c(=S)[nH]c3c1)CC2 and answer again.
> 100 µM

Now consider C=C1C(=O)O[C@H]2[C@H]1CC/C(Cn1cc(CNCCc3c[nH]c4ccc(Cl)cc34)nn1)=C\CC[C@@]1(C)O[C@@H]21 and answer again.
19.7 µM

Now consider CN(C)c1ccc(-c2ccc(-c3ccc(C(=N)N)c(F)c3)s2)cc1 and answer again.
3.5 µM
